# TESTED_ON: Telomerase reverse transcriptase (Homo sapiens)
# TEST: Activation of human telomerase activity expressed in HEK293T cells incubated for 30 mins by modified TRAP assay
# Assay type: cell-based
# RUN_CONDITIONS: HEK-293T
Activity calls are given as the source filed them. The rule behind the calls is not given here.
Possible outcomes: active, inactive

- COc1cc(/C=C/C(=O)CC(=O)/C=C/c2ccc(OCCCCC[n+]3ccccc3)c(OC)c2)ccc1OCCCCC[n+]1ccccc1: active
- COc1cc(CCC(O)CC(O)CCc2ccc(O)c(OC)c2)ccc1O (configuration not stated): inactive
- COc1cc(CCC(=O)CC(=O)CCc2ccc(O)c(OC)c2)ccc1O: inactive
- COc1cc(/C=C/C(=O)CC(=O)/C=C/c2ccc(O)c(OC)c2)ccc1O: inactive
- O=C(/C=C/c1ccc(O)cc1)CC(=O)/C=C/c1ccc(O)cc1: inactive
- COc1cc(/C=C/C(O)=C/C(=O)/C=C/c2ccc(O)cc2)ccc1O: inactive
- COc1cc(/C=C/C(=O)CC(=O)/C=C/c2ccc(OCCO)c(OC)c2)ccc1OCCO: inactive

###

Parameter fold change (FC): see the listing below.
# TESTED_ON: Telomerase reverse transcriptase (Homo sapiens) (UniProt O14746)
# Sequence (O14746 whole entry): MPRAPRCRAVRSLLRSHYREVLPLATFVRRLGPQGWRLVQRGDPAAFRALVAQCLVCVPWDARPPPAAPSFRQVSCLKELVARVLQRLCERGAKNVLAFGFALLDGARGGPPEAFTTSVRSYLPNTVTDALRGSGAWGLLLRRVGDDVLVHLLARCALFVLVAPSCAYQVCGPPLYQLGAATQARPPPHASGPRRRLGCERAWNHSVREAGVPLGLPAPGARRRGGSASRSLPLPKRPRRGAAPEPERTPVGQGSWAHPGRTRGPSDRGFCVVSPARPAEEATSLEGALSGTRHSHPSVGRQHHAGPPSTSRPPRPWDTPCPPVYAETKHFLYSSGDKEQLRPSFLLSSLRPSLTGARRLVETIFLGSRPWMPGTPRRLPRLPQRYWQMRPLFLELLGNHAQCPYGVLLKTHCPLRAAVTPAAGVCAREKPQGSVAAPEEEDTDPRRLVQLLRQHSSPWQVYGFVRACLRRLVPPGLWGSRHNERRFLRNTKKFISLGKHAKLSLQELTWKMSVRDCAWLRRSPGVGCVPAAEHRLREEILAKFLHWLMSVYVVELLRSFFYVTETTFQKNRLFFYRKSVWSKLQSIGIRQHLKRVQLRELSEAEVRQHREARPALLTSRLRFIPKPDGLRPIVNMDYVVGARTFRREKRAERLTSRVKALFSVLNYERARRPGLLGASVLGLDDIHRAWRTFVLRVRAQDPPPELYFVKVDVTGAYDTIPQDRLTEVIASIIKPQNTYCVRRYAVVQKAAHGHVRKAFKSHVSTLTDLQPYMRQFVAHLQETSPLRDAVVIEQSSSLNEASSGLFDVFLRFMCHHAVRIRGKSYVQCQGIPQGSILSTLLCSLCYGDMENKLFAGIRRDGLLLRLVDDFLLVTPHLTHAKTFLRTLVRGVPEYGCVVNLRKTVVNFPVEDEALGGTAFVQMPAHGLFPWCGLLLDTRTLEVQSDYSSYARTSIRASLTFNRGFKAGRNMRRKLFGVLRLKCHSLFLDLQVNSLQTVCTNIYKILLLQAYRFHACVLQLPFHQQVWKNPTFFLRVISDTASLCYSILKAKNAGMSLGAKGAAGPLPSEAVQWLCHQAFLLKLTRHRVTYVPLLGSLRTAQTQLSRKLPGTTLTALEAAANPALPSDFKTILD
# TEST: Activation of human telomerase activity expressed in HEK293T cells at 60 uM incubated for 30 mins by modified TRAP assay
# Assay type: cell-based
# RUN_CONDITIONS: HEK-293T
TEST_READOUT: fold change (FC)

• COc1cc(/C=C/C(=O)CC(=O)/C=C/c2ccc(OCCCCC[n+]3ccccc3)cc2)ccc1O = 3
• COc1cc(/C=C/c2cc(/C=C/c3ccc(OCCCCC[n+]4ccccc4)c(OC)c3)on2)ccc1OCCCCC[n+]1ccccc1 = 3
• COc1cc(/C=C/C(=O)CC(=O)/C=C/c2ccc(O)cc2)ccc1OCCCCC[n+]1ccccc1 = 3
• COc1cc(/C=C/C(=O)CC(=O)/C=C/c2ccc(OCCCCC[n+]3ccccc3)c(OC)c2)ccc1OCCCCC[n+]1ccccc1 = 5
• COc1cc(/C=C/C(=O)CC(=O)/C=C/c2ccc(OCCCCC[n+]3ccccc3)c(OC)c2)ccc1O = 3
